Listed next: entries and their corresponding melting point.

Some compounds with recorded melting point:
Entry under test: CC(Nc1ccc([N+](=O)[O-])cc1)c1ccccc1 (configuration not stated) . Its melting point was 95 to 96 °C

Per the records, this compound ( CC1(C)CCc2c1cc(C=O)c(O)c2Br ) has melting point equal to 77.5 to 78.5 °C

What the record says about CCOC(=O)C(Cc1cccc2ccccc12)C(=O)OCC : melting point is 30 °C

Entry Cc1cc(/C=C/C(c2cc(Cl)cc(Cl)c2)C(F)(F)F)ccc1C(=O)O (configuration not stated) — recorded melting point = 142 to 143 °C

Form: compound = CN(C)CCc1nc(C(N)=O)c2n1-c1ccc(Cl)cc1C(c1ccccc1Cl)=NC2 ; melting point = 249 to 251 °C

For this compound ( Cc1cc(N)ccc1N1CCC(N2CCOCC2)CC1 ), measured melting point is 199 to 200 °C

---
Per the records, this compound ( O=[N+]([O-])c1cccc2c1ccn2S(=O)(=O)c1cccc2ccccc12 ) has melting point equal to 156 to 157 °C

// melting point lookup, compound = NCc1cn(CCC(=O)O)c(=S)n1[C@H]1CCc2c(F)cc(F)cc2C1 , result: 191 °C

According to the records, this compound CN1CCN(c2ccc(-c3cnc4c(c3)N(Cc3cc(F)ccc3F)CCN4)cn2)CC1 displays melting point of 192 to 193 °C

// field: melting point; key: O=[N+]([O-])c1ccc(NN=CCc2cccnc2)cc1 ; value = 212 to 214 °C

So for C=CCN1CCC2(CC1)c1ccccc1C(=O)c1c(OC)cccc12 , the logged melting point turned out to be 115 to 117 °C

Entry O=C1CCC(N2Cc3c(OCc4ccc(CN5CCC(O)(c6ccccc6)CC5)cc4)cccc3C2=O)C(=O)N1 (configuration not stated) , melting point reported as 140 to 142 °C

// melting point value for COc1ccccc1N1CCN(C2CCN(c3csc4ccccc34)CC2)CC1 : 156 to 158 °C
